Measured values drawn from patent US20050075388A1 for this set.

The reader will find reported melting point values listed item by item below.
Measured quantity: melting point

>>> endpoint_result("O=c1oc2cc(O)c(O)cc2c(O)c1C(CCCC(c1c(O)c2cc(O)c(O)cc2oc1=O)c1c(O)c2cc(O)c(O)cc2oc1=O)c1c(O)c2cc(O)c(O)cc2oc1=O")
"> 300 °C"
>>> endpoint_result("O=c1oc2cc(O)cc(O)c2c(O)c1C(CCCC(c1c(O)c2c(O)cc(O)cc2oc1=O)c1c(O)c2c(O)cc(O)cc2oc1=O)c1c(O)c2c(O)cc(O)cc2oc1=O")
"> 300 °C"
>>> endpoint_result("O=c1oc2cc(O)ccc2c(O)c1C(CCCC(c1c(O)c2ccc(O)cc2oc1=O)c1c(O)c2ccc(O)cc2oc1=O)c1c(O)c2ccc(O)cc2oc1=O")
"299 to 302 °C"
>>> endpoint_result("O=c1oc2cc(O)cc(O)c2c(O)c1C1c2ccccc2Oc2c1c(=O)oc1cc(O)cc(O)c21 (stereo not shown)")
"> 300 °C"
>>> endpoint_result("O=c1oc2ccccc2c(O)c1C1c2ccccc2Oc2c1c(=O)oc1ccccc21 (stereo not shown)")
"> 255 °C (dec.)"
>>> endpoint_result("O=c1oc2ccccc2c(O)c1C(CC(c1c(O)c2ccccc2oc1=O)c1c(O)c2ccccc2oc1=O)c1c(O)c2ccccc2oc1=O")
"286 to 288 °C"
>>> endpoint_result("CCOC1Oc2c(c(=O)oc3ccccc23)C1c1c(O)c2ccccc2oc1=O (stereo not shown)")
"166 to 169 °C"
